inhibition overview
system: Epidermal growth factor receptor (Homo sapiens), P00533 [T790M]; conditions: at 0.1 µM
Sequence (P00533 whole entry T790M): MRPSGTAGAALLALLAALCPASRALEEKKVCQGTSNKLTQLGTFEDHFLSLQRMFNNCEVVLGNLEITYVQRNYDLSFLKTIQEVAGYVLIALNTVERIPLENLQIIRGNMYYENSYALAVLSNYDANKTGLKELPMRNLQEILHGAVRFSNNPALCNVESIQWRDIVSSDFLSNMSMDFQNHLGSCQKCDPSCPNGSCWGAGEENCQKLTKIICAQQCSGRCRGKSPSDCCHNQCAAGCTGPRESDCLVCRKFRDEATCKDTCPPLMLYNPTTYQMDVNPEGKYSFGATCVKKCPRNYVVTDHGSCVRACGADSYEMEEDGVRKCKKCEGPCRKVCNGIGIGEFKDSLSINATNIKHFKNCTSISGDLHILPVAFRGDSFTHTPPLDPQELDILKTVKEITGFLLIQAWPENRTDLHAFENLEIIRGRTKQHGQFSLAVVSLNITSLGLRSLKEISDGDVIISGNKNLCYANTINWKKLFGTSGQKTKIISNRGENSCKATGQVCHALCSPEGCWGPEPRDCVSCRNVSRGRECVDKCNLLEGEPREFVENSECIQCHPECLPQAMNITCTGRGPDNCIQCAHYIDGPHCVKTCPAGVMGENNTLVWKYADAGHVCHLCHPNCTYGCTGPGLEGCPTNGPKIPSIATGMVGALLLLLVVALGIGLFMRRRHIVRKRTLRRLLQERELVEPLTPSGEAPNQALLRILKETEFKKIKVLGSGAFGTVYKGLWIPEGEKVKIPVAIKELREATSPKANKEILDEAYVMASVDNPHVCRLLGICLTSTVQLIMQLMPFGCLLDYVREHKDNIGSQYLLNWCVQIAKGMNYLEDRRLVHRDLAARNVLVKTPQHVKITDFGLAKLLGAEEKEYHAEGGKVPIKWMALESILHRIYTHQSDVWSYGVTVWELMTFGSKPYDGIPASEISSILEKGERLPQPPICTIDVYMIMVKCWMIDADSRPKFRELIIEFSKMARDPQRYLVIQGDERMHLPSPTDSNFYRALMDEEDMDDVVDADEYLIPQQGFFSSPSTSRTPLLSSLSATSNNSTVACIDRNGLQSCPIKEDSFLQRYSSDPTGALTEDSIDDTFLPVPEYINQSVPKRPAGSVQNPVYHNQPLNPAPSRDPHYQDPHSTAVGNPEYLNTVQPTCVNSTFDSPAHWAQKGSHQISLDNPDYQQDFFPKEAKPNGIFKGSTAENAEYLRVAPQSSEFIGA
measure: inhibition (%)

compound | measure | unitString | dataValue
Clc1ccc(CNc2nccc(-c3cnn4ncccc34)n2)cc1 | inhibition | % | 0.11
CCC(=O)Nc1ccc(C)c(-c2ccc(C(=O)NCC3CC3)cc2)c1 | inhibition | % | 0.82
Cc1ccc(C(=O)NC(C)C)cc1-c1ccc(C(=O)NCC2CC2)cc1 | inhibition | % | -0.77
Nc1nccc(-c2c(-c3ccc(F)cc3)ncn2C2CCC(O)CC2)n1 (stereo not given) | inhibition | % | -1.86
C/C(Nc1ccc(S(N)(=O)=O)cc1)=C1/C(=O)Nc2ccccc21 | inhibition | % | -0.56
CN(c1ccc(NC(=O)Nc2c(Cl)cccc2Cl)cc1)c1ccnc(Nc2cccc(CS(C)(=O)=O)c2)n1 | inhibition | % | 1.27
NS(=O)(=O)c1ccc(Nc2cc(-c3ccc(O)c(F)c3)n[nH]2)cc1 | inhibition | % | -1.07
COc1cc(Nc2ncc3c(C)nc(-c4cccc(C(F)(F)F)c4)n3n2)cc(OC)c1OC | inhibition | % | 1.49
CN(C)CCCNc1nccc(-c2c(-c3ccc(F)cc3)nn3cc(C(F)(F)F)ccc23)n1 | inhibition | % | 1.53
COc1cccc(/C=N/Nc2ncnc3c2cnn3-c2cccc(OC)c2)c1 | inhibition | % | 0.54
N#Cc1ccc(Oc2nccc(-c3c(-c4ccc(F)cc4)ncn3C3CCNCC3)n2)cc1 | inhibition | % | 1.89
CCN(CC)Cc1ccc(Nc2nccc(-c3cnn4ncccc34)n2)cc1 | inhibition | % | 0.54
COC(=O)Nc1nc2ccc(Sc3ccc(NC(=O)Nc4cc(C(F)(F)F)ccc4F)cc3)cc2[nH]1 | inhibition | % | 0.63
O=C(Nc1n[nH]c2nc(-c3ccco3)ccc12)C1CC1 | inhibition | % | 0.31
COc1ccc(-c2ccc3c(NC(=O)C4CC4)n[nH]c3n2)cc1 | inhibition | % | -0.2
COc1cccc(-n2cnc3c(N/N=C/c4ccncc4)ncnc32)c1 | inhibition | % | -0.92
C[C@@H](Oc1cc(-n2cnc3ccc(OCC4CCN(C)CC4)cc32)sc1C(N)=O)c1ccccc1Cl | inhibition | % | 1.15
COc1cc(N2CCN(C(C)C)CC2)ccc1Nc1nc(Nc2ccc(F)cc2C(=O)NC[C@@H](O)CO)c2cc[nH]c2n1 | inhibition | % | 4.54
Cc1ccc(C(=O)NC2CCC2)cc1-c1ccc(C(=O)NCC2CC2)cc1 | inhibition | % | 1.73
O=C(Nc1n[nH]c2nc(-c3ccc(O)cc3)c(Br)cc12)C1CC1 | inhibition | % | 4.95
